# EXPERIMENTAL_TARGET: T1, CRBN, Q96SW2;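 note: pooled lentiviral library of zinc finger degron-EGFP fusions in mCherry-positive Jurkat cells, FACS-sorted after compound exposure, with degron abundance counted by next-generation sequencing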
# T1 chain: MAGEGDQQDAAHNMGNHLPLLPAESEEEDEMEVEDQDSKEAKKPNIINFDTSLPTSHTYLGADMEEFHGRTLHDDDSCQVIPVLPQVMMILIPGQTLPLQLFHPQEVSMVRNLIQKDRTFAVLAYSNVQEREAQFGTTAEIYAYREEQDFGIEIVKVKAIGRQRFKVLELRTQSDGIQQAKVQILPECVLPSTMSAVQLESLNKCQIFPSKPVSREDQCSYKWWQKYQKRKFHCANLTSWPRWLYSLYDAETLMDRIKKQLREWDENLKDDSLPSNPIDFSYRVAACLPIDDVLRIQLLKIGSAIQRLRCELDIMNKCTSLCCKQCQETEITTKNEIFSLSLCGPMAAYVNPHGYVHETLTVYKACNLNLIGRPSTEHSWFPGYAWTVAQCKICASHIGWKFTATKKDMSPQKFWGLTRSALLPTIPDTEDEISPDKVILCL
# PROTOCOL_DESCRIPTION: log2 fold change of degron read counts, EGFP-low vs EGFP+ sorted cells (limma voom), compound-induced degradation; higher = more compound-induced degradation of the degron-EGFP fusion; degrons are variants of IKZF1/3 zinc finger 2; compound dose not given here
# RECORDED_CONDITIONS: Jurkat; 18 h; compound: thalidomide
Whole data set: some 8,300 sequences, median “log2 fold change of degron read counts, EGFP-low vs EGFP+ sorted cells (limma voom), compound-induced degradation” near -1.1, cut for the highest 2% near 3.2. This excerpt belongs to a sample that is enriched for the highest values.
MEASUREMENT_TYPE: log2 fold change of degron read counts
Kindly provide the number alone.

The reported value for FWCNQCGRSFTQKGNLLRHIKL [46F_47W_49N_50Q_52G_53R_54S_55F_67L_, Q9UKT9] in terms of log2 fold change of degron read counts is -2.07

log2 fold change of degron read counts recorded for this sequence, FSCEVCGAHFTQKGNLLRHIKL [46F_47S_49E_50V_52G_53A_54H_55F_67L_, Q9UKT9] , is 0.0402

Entry under test: FGCPICGRIFTQKGNLLRHIKL [46F_47G_49P_50I_52G_53R_54I_55F_67L_, Q9UKT9] . Its log2 fold change of degron read counts was -0.161

According to the records, this sequence FFCNQCGRSFTQKGNLLRHIKL [46F_47F_49N_50Q_52G_53R_54S_55F_67L_, Q9UKT9] displays log2 fold change of degron read counts of -2.53

Data point: LECEICGFGCTQKGNLLRHIKL [46L_47E_49E_50I_52G_53F_54G_55C_67L_, Q9UKT9] ; log2 fold change of degron read counts = -0.202

// recorded log2 fold change of degron read counts for FYCPICGAIFTQKGNLLRHIKL [46F_47Y_49P_50I_52G_53A_54I_55F_67L_, Q9UKT9] : 0.386

log2 fold change of degron read counts reported for this sequence FTCNQCGRRFTQKGNLLRHIKL [46F_47T_49N_50Q_52G_53R_54R_55F_67L_, Q9UKT9] : -1.42

Sure, the documented log2 fold change of degron read counts for LNCPICGFLCTQKGNLLRHIKL [46L_47N_49P_50I_52G_53F_54L_55C_67L_, Q9UKT9] is 0.391

Lab book: log2 fold change of degron read counts of FKCNQCGHRFTQKGNLLRHIKL [46F_47K_49N_50Q_52G_53H_54R_55F_67L_, Q9UKT9] noted as -2.52

Given item FQCPICGAIFTQKGNLLRHIKL [46F_47Q_49P_50I_52G_53A_54I_55F_67L_, Q9UKT9] , the value recorded as its log2 fold change of degron read counts is 3.79

response.value for FTCEQCGAHFTQKGNLLRHIKL [46F_47T_49E_50Q_52G_53A_54H_55F_67L_, Q9UKT9] (field: log2 fold change of degron read counts) = -0.624

Recorded log2 fold change of degron read counts (sequence FQCNQCGRQFTQKGNLLRHIKL [46F_47Q_49N_50Q_52G_53R_54Q_55F_67L_, Q9UKT9] ): -2.34

Field log2 fold change of degron read counts (entry LLCEICGFICTQKGNLLRHIKL [46L_47L_49E_50I_52G_53F_54I_55C_67L_, Q9UKT9] ) reads 1.04

So, FGCPICGAIFTQKGNLLRHIKL [46F_47G_49P_50I_52G_53A_54I_55F_67L_, Q9UKT9] ? Its log2 fold change of degron read counts was 0.986

// log2 fold change of degron read counts value for FVCPICGAIFTQKGNLLRHIKL [46F_47V_49P_50I_52G_53A_54I_55F_67L_, Q9UKT9] : 1.69

Lab note: LFCEICGFSCTQKGNLLRHIKL [46L_47F_49E_50I_52G_53F_54S_55C_67L_, Q9UKT9] gave log2 fold change of degron read counts of 2.79

Form field log2 fold change of degron read counts, entry FYCNQCGRCFTQKGNLLRHIKL [46F_47Y_49N_50Q_52G_53R_54C_55F_67L_, Q9UKT9] : -2.28

For FGCPQCGAFFTQKGNLLRHIKL [46F_47G_49P_50Q_52G_53A_54F_55F_67L_, Q9UKT9] the sequence record lists log2 fold change of degron read counts as -1.62

Looking up LYCEICGFSCTQKGNLLRHIKL [46L_47Y_49E_50I_52G_53F_54S_55C_67L_, Q9UKT9] , I see its log2 fold change of degron read counts listed as 2.45

Reported log2 fold change of degron read counts of FWCPICGHTFTQKGNLLRHIKL [46F_47W_49P_50I_52G_53H_54T_55F_67L_, Q9UKT9] : -2.18

Quick note, log2 fold change of degron read counts for LICEICGFSCTQKGNLLRHIKL [46L_47I_49E_50I_52G_53F_54S_55C_67L_, Q9UKT9] landed at 3.24

Value of measured log2 fold change of degron read counts for the entry LTCNQCGFKCTQKGNLLRHIKL [46L_47T_49N_50Q_52G_53F_54K_55C_67L_, Q9UKT9] : -1.79

Entry under test: LMCEICGFSCTQKGNLLRHIKL [46L_47M_49E_50I_52G_53F_54S_55C_67L_, Q9UKT9] . Its log2 fold change of degron read counts was 2.36

log2 fold change of degron read counts measured on FCCPQCGAMFTQKGNLLRHIKL [46F_47C_49P_50Q_52G_53A_54M_55F_67L_, Q9UKT9] = -0.935

Item: FACNICGAWFTQKGNLLRHIKL [46F_47A_49N_50I_52G_53A_54W_55F_67L_, Q9UKT9] | log2 fold change of degron read counts: -1.22

Quick note, log2 fold change of degron read counts for FHCPQCGATFTQKGNLLRHIKL [46F_47H_49P_50Q_52G_53A_54T_55F_67L_, Q9UKT9] landed at -1.77

# sequence FECPVCGADFTQKGNLLRHIKL [46F_47E_49P_50V_52G_53A_54D_55F_67L_, Q9UKT9] ; its log2 fold change of degron read counts = 2.24

Lab note: measured log2 fold change of degron read counts of FGCDVCGALFTQKGNLLRHIKL [46F_47G_49D_50V_52G_53A_54L_55F_67L_, Q9UKT9] was -1.67

Measured log2 fold change of degron read counts of FACEICGRIFTQKGNLLRHIKL [46F_47A_49E_50I_52G_53R_54I_55F_67L_, Q9UKT9] : -1.01

Cited source for all entries: the supplement of paper PMC12645437
